target-or-system: T1, Human CD47-C33G (human, UniProt Q08722 19-135)
T1 construct: also called CD47 mutein with C33G mutation
T1 sequence (Q08722 19-135 C33G limits assumed): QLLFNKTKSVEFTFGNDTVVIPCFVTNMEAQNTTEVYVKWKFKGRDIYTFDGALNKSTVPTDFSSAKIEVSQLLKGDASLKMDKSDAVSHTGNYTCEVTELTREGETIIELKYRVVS
assay-protocol: SPR, IgG captured, CD47 in flow; exp 1;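 also: biacore T200 SPR using IgG from supernatants of transfected HEK293 cells, rate constants fitted to association and dissociation curves, Kd derived from koff over kon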
experimental-endpoint: pKd
The quantity pKd is defined as the negative base-10 logarithm of the molar concentration.

# count of solved cases: 5
108VH4.M4-VL1.M1 (antibody, V domains shown, also called original humanized 108C10A6 antibody) VH: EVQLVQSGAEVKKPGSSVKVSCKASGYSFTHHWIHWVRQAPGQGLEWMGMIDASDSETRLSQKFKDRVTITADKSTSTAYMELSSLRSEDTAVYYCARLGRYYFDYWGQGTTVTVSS VL: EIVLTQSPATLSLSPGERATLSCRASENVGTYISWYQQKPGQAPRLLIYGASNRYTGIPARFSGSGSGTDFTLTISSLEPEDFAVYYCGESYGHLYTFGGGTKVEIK; 8.74
108VH5 / 108VL1.M5 (antibody, human IgG4 S228P, kappa, V domains shown, Full-length IgG4 (S228P), kappa; also called VH5 VL1.M5) VH: EVQLVQSGAEVKKPGASVKVSCKASGYSFTHHWIHWVRQAPGQGLEWMGMIDPSDSETRLSQKFKDRVTMTRDTSTSTVYMELSSLRSEDTAVYYCARLGRYYFDYWGQGTLVTVSS VL: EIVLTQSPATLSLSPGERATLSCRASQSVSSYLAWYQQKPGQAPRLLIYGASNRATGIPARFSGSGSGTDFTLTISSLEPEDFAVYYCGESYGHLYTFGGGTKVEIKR; 8.47
108VH5.M5 / 108VL1.M5 (antibody, human IgG4 S228P, kappa, V domains shown, Full-length IgG4 (S228P), kappa; also called VH5.M5 VL1.M5) VH: EVQLVQSGAEVKKPGASVKVSCKASGYTFTHHWIHWVRQAPGQGLEWMGMIDASDSETRLSQKFKDRVTMTRDTSTSTVYMELSSLRSEDTAVYYCARLGRYYFDYWGQGTLVTVSS VL: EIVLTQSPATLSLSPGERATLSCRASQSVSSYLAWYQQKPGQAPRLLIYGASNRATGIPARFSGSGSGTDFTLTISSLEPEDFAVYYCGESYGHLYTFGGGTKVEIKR; 8.21
108VH5.M6 / 108VL1.M5 (antibody, human IgG4 S228P, kappa, V domains shown, Full-length IgG4 (S228P), kappa; also called VH5.M6 VL1.M5) VH: EVQLVQSGAEVKKPGASVKVSCKASGYTFTHHYMHWVRQAPGQGLEWMGMIDASDSETRLSQKFKDRVTMTRDTSTSTVYMELSSLRSEDTAVYYCARLGRYYFDYWGQGTLVTVSS VL: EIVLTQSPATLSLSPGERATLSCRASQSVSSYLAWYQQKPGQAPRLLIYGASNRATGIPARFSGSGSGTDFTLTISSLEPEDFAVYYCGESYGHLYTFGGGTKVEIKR; 6.10
chimeric antibody 108C10A6 (antibody, V domains shown, Chimeric antibody with mouse variable domains; captured through human Fc; also called VH / VL) VH: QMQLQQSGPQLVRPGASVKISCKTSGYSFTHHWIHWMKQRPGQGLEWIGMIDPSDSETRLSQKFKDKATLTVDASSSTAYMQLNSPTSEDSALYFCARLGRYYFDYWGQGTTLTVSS VL: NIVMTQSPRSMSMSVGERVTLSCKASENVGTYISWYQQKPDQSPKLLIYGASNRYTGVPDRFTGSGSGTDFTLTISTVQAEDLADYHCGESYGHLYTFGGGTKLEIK; 9.04

Prompt: Provide pKd value for the following binder: 108VH5.M8 / 108VL1.M5 (antibody, human IgG4 S228P, kappa, V domains shown, Full-length IgG4 (S228P), kappa; also called VH5.M8 VL1.M5) VH: EVQLVQSGAEVKKPGASVKVSCKASGYSFTHHWIHWVRQAPGQGLEWMGMIDASDSETRYAQKFKDRVTMTRDTSTSTVYMELSSLRSEDTAVYYCARLGRYYFDYWGQGTLVTVSS VL: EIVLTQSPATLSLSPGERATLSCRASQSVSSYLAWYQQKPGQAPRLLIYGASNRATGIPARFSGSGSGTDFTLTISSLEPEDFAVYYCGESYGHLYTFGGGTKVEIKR
Completion: 7.82

Prompt: Return value of pKd for input 108VH5.M9 / 108VL1.M5 (antibody, human IgG4 S228P, kappa, V domains shown, Full-length IgG4 (S228P), kappa; also called VH5.M9 VL1.M5) VH: EVQLVQSGAEVKKPGASVKVSCKASGYSFTHHWIHWVRQAPGQGLEWMGMIDASDSETRLSQKFQGRVTMTRDTSTSTVYMELSSLRSEDTAVYYCARLGRYYFDYWGQGTLVTVSS VL: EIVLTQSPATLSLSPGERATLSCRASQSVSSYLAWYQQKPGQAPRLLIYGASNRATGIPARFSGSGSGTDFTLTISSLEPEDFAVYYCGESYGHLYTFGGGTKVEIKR , no commentary.
Completion: 8.07

Where do the numbers come from? From patent US20260132197A1.
